Biological target: N-glycosylase/DNA lyase (Homo sapiens) (UniProt O15527);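 also: OGG1 cleavage of a quenched duplex DNA oligonucleotide, coupled to APE1 for strand incision, read as fluorescence at 594 nm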
Sequence (O15527 whole entry): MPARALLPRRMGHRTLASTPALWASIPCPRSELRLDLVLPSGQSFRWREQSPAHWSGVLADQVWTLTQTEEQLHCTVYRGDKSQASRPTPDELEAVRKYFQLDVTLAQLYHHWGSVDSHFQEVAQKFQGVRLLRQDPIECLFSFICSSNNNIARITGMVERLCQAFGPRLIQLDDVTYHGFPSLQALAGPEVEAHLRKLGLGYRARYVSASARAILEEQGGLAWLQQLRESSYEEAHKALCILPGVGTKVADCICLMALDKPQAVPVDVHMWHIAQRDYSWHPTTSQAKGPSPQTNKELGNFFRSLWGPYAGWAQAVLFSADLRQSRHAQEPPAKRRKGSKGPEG
Settings: Compound Concentration 10.0 uM, Hit No
Description: Inhibition of OGG1 by quantifying inhibition of OGG1-mediated cleavage and dissociation of quenched duplex DNA oligonucleotides, measured as fluorescence at 594 nm. To generate a functional strand incision and increase turn-over this assay is coupled to APE1.
I'd be grateful if you could share measured inhibition for these entries.
One number for each entry, in %.

Use these answered entries as a reference point.
compound	value_units	inhibition
Cc1cccc(F)c1C(=O)Nc1cnc(-c2cc3c(cc2Cl)OC(F)(F)O3)cn1	%	-4.79
CCCCCCCN(CCc1ccc(SC(C)(C)C(=O)O)cc1)C(=O)Nc1ccc(F)cc1F	%	44.6
O=c1cccc2n1C[C@@H]1CNC[C@H]2C1	%	-5.41
COc1ccncc1C(=O)NC(=O)Nc1ccc(-c2ccccc2)c(C(F)(F)F)c1	%	-8.25
CCNC(=O)c1cc2c(N3CCOC[C@@H]3C)ccnc2n1C	%	11.4

Report inhibition for every entry below.
1. N#Cc1cccc(C(=O)Nc2cc(-c3ccccc3)nn2-c2ccccc2)c1
2. C[C@@H](c1cccc(C#N)c1)n1cc(Cl)cc(C(N)=O)c1=N
3. CC1(C)CCC(C)(C)c2cc(C(=O)Nc3ccc(C(=O)O)cc3)ccc21
4. C[C@H](Cc1cc2c(c(C(N)=O)c1)N(CCCO)CC2)NCCOc1ccccc1OCC(F)(F)F

[-5.93, 1.26, 27.8, -6.28]

# return inhibition for each item in the list
1. Cc1ccc(C(C)(O)c2nc3ccccc3s2)c(C)c1 (centres undefined)
2. C=C1/C(=C\C=C2/CCC[C@]3(C)[C@@H]([C@H](C)/C=C/C=C/C(O)(CC)CC)CC[C@@H]23)C[C@@H](O)C[C@@H]1O
3. O=C(O)CC1CCC2(CC1)CCN(c1cc(OC(F)(F)F)ccc1Cl)CC2
4. O=C(Nc1ccc(Cl)cc1)Nc1cccc(-c2cccc(N3CCCC3)n2)c1
5. CCOc1ccc(S(=O)(=O)Nc2ccc(Cl)cc2C#Cc2cnc(C(=O)O)cc2OC)c2ncccc12

2.68
-1.05
8.63
-1.14
7.9

Hello, I would appreciate it if you could give inhibition for each entry below.
1. COc1ccc(CC(=O)NCc2ccccc2-c2ccccc2C(=O)NCc2ccc(F)cc2F)cc1
2. CSc1ccccc1N1CCN(CCCCCC(=O)NC2CCCc3ccccc32)CC1 (centres undefined)
3. CC1(C)CN2C(CS/C(=N\C3CCCCC3)NC3CCCCC3)=CSC2=N1
4. CN1CCCC(n2nc(Cc3ccc(Cl)cc3)c3ccccc3c2=O)CC1 (centres undefined)
5. CCCN1CCO[C@H]2c3cc(O)ccc3OC[C@@H]21

-0.346
-6.45
5.96
-0.805
-4.1

# return inhibition for each item in the list
1. CCOC(=O)c1ccc(CN(Cc2ccc(-c3cccc(S(C)(=O)=O)c3)cc2)S(=O)(=O)c2c(C)cc(C)cc2C)o1
2. COc1cc([N+](=O)[O-])ccc1NC(=O)c1ccccc1O
3. O=[N+]([O-])c1ccc(CN2CCOCCOCCN(Cc3ccc([N+](=O)[O-])cc3)CCOCC2)cc1
4. Cc1nc2sccn2c(=O)c1CCN1CCC(=C(c2ccc(F)cc2)c2ccc(F)cc2)CC1
5. CN1CC(=O)N=C1NC(=O)Nc1cccc(Cl)c1
6. CN1CCC(=C2c3ccccc3CC(=O)c3sccc32)CC1
7. CC(=O)N1CCC(c2ccc(C(=O)NC(=N)N)cc2C(F)(F)F)CC1

[0.574, -1.87, -5.46, 4.32, -2.01, -5.18, 3.38]

For the 3 compounds below, give their inhibition values.
1. COc1cc(N2CCC(O)CC2)ccc1Nc1cc(Nc2ccccc2S(=O)(=O)C(C)C)c2cc[nH]c2n1
2. COCCCS(=O)(=O)c1cc(C)c(-c2ccc(F)c3c2CC[C@H]3Oc2ccc3c(c2)OC[C@H]3CC(=O)O)c(C)c1
3. CC(C)Cc1ccc([C@@H](C)C(=O)NS(C)(=O)=O)cc1

1. 21.1
2. 31
3. -2.17

Hello, I would appreciate it if you could give inhibition for each entry below.
1. O=C(O)c1ccc(C(=O)N[C@@H](c2ccc(OC(F)(F)F)c(F)c2)c2ncccc2F)nc1
2. CO[C@H]1CC[C@H](CNc2ccc(S(=O)(=O)NC(=O)c3ccc(N4CCN(CC5=C(c6ccc(Cl)cc6)CC(C)(C)CC5)CC4)cc3Oc3cnc4[nH]ccc4c3)cc2[N+](=O)[O-])CC1
3. CC(C)(C)C1CCc2c(sc(NC(=O)c3ccco3)c2C(=O)O)C1 (centres undefined)
4. CC(Cc1ccc(O)c(O)c1)C(C)Cc1ccc(O)c(O)c1 (centres undefined)
5. CCOc1c2c(c(OCC)c3ncccc13)CN(c1ccc(CS(=O)(=O)NC(=O)Cc3ccccc3OC)cc1C)C2=O
6. CCCCc1nc(Cl)c(CO)n1Cc1ccc(-c2ccccc2-c2nnn[nH]2)cc1
7. CC(C)(C#Cc1ccc(NC(=O)COc2ccccc2C(=O)c2ccccc2)c(Cl)c1)C(=O)O
8. CN(C)CC[C@@H](c1ccc(Cl)cc1)c1ccccn1

-2.45
62
36.3
28.8
3.01
-0.971
49.5
-3.11

Count: 2. Required value per item: inhibition.
1. Cc1cccc(CN2CCN(C(c3ccccc3)c3ccc(Cl)cc3)CC2)c1 (centres undefined)
2. OC(c1ccc(-c2ccc(CN3CCN(Cc4ccncc4)CC3)cc2)c(F)c1)(C(F)(F)F)C(F)(F)F

1. 3.33
2. -1.15
